Listed next: entries and their corresponding log10(fIC50).
Tested on: Leucine-rich repeat serine/threonine-protein kinase 2 (Homo sapiens), Q5S007 [G2019S]
Sequence (Q5S007 whole entry G2019S): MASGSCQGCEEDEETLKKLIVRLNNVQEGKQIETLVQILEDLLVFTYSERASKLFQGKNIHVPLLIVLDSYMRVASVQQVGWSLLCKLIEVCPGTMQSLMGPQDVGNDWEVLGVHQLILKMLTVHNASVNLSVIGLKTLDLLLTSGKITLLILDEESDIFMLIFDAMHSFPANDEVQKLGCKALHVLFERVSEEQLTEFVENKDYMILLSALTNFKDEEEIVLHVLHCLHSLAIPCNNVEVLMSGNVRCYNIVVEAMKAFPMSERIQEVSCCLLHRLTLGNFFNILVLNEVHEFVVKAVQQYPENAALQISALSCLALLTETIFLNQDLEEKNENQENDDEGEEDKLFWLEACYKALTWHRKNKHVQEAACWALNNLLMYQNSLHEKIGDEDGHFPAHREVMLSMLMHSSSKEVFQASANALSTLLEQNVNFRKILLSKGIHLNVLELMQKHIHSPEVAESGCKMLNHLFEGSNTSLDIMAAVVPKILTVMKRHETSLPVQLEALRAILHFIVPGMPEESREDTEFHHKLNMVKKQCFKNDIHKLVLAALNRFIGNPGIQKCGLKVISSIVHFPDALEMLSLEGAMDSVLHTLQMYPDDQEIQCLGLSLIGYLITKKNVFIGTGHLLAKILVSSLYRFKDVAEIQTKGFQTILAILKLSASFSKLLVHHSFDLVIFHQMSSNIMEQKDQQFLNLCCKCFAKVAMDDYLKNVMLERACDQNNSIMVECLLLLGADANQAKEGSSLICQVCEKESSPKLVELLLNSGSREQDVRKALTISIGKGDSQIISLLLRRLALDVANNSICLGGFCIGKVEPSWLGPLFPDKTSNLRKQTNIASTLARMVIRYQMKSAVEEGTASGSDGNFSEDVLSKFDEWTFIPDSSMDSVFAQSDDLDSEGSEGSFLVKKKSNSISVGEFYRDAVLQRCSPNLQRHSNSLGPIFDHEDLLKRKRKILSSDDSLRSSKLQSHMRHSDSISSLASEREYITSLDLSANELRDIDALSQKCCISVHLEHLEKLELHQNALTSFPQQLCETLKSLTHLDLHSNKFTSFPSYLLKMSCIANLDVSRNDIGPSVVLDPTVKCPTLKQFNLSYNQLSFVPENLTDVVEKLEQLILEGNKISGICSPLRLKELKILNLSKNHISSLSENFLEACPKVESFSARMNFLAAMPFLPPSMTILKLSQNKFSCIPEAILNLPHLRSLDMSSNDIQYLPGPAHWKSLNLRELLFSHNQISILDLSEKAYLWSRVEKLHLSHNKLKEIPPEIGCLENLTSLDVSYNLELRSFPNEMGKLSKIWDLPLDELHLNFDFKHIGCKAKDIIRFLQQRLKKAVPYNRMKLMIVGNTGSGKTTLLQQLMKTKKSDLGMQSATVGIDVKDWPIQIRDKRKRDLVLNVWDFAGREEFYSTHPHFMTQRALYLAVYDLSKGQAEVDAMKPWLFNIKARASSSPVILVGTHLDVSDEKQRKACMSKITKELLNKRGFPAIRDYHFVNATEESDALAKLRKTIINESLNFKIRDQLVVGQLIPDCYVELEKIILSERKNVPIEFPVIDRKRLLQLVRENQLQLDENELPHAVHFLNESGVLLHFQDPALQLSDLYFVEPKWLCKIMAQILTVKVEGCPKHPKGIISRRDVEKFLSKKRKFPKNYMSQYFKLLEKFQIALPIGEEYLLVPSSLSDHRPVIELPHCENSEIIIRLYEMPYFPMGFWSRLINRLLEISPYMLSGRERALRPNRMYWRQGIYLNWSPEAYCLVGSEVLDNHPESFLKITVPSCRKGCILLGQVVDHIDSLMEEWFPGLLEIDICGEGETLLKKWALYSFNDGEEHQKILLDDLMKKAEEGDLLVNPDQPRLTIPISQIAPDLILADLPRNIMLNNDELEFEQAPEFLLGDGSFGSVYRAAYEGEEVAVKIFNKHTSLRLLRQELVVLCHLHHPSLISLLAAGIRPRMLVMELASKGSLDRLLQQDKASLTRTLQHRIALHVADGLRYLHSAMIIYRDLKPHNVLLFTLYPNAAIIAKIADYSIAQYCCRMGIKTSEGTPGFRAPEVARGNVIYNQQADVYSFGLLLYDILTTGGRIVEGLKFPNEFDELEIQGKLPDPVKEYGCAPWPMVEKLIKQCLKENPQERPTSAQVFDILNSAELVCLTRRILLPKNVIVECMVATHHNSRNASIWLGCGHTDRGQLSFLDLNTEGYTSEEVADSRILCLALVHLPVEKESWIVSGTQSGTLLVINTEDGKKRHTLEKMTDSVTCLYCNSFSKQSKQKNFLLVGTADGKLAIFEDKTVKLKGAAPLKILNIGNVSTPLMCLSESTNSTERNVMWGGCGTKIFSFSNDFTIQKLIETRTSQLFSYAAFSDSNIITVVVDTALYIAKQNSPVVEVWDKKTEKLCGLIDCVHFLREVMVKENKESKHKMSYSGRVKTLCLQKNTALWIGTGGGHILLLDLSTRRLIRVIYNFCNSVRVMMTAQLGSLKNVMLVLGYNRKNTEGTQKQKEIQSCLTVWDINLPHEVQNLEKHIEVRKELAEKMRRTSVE
Experiment: Inhibition of LRRK2 […] mutant expressed in human SH-SY5Y cells assessed as unbound concentration required for inhibition of phosphorylation of LRRK2 at Ser935 residue incubated for 90 mins by MSD assay
Type: cell-based
Readout label: log10(fIC50) (log10 of the value in nM)

Compound: CC(C)(O)Cn1ncc(Nc2ncc3cc(Cl)c(C4CCN(C5COC5)CC4)cc3n2)c1Cl
log10(fIC50): 1.76

Compound: Cc1c(Nc2ncc3cc(Cl)c(C4CCN(C5COC5)CC4)cc3n2)cnn1C1CC1
log10(fIC50): 1.00

Compound: Clc1cc2cnc(Nc3cnn(C4CC4)c3Cl)nc2cc1C1CCN(C2COC2)CC1
log10(fIC50): 0.68

Compound: O[C@H]1COC[C@H]1N1CC[C@@H](c2cc3nc(Nc4cnn([C@@H]5CC5(F)F)c4Cl)ncc3cc2Cl)[C@H](F)C1
log10(fIC50): -0.24

Compound: FC(F)Cn1ncc(Nc2ncc3cc(Cl)c(C4CCN(C5COC5)CC4F)cc3n2)c1Cl (stereo not given)
log10(fIC50): 0.87

Compound: Cc1c(Nc2ncc3ccc(C4(C#N)CC4)cc3n2)cnn1C1CCOCC1
log10(fIC50): 1.28

Compound: Cc1c(Nc2ncc3ccc(-c4ccn[nH]4)cc3n2)cnn1C1CCOCC1
log10(fIC50): 2.06

Compound: FC1CN(C2COC2)CCC1c1cc2nc(Nc3cnn(C4CC4)c3Cl)ncc2cc1Cl (stereo not given)
log10(fIC50): 0.63

Compound: N#CC1(c2ccc3cnc(Nc4cnn(C5CCOCC5)c4Cl)nc3c2)CC12CC2 (stereo not given)
log10(fIC50): 0.23

Compound: Cc1c(Nc2ncc3cccc(C4CC4)c3n2)cnn1C1CCOCC1
log10(fIC50): 1.49
